Test system: IGROV-1
Assay: Cytotoxicity (PrestoBlue), ovarian cancer line
Format: cell-based
Conditions: IGROV-1, 72 h incubation
pIC50: −log10 of the molar value.
So basically: pIC50 at 5 or higher? That is Yes. Lower than 5? That is No.

{"COMPOUND": "Cc1c(C)n(Cc2ccccc2)[c](=[Cu][Cl])n1Cc1ccccc1 [Cu-LA]", "CLASS_ASSIGNMENT": "No"}
{"COMPOUND": "N.N.[Cl][Pt][Cl] [Cisplatin, cisplatin, reference compound]", "CLASS_ASSIGNMENT": "Yes"}
{"COMPOUND": "Cc1c(C)n(Cc2ccccc2)[c](=[Ag][Cl])n1Cc1ccccc1 [Ag-LA]", "CLASS_ASSIGNMENT": "No"}
{"COMPOUND": "CC(=O)OC[C@H]1O[C@@H]([S-])[C@H](OC(C)=O)[C@@H](OC(C)=O)[C@@H]1OC(C)=O.CCP(CC)CC.[Au+] [Auranofin, auranofin, reference compound]", "CLASS_ASSIGNMENT": "Yes"}
